TARGET_OR_SYSTEM: T1, Pif1 (full-length recombinant) (Saccharomyces cerevisiae, UniProt P07271 1-859)
T1 sequence: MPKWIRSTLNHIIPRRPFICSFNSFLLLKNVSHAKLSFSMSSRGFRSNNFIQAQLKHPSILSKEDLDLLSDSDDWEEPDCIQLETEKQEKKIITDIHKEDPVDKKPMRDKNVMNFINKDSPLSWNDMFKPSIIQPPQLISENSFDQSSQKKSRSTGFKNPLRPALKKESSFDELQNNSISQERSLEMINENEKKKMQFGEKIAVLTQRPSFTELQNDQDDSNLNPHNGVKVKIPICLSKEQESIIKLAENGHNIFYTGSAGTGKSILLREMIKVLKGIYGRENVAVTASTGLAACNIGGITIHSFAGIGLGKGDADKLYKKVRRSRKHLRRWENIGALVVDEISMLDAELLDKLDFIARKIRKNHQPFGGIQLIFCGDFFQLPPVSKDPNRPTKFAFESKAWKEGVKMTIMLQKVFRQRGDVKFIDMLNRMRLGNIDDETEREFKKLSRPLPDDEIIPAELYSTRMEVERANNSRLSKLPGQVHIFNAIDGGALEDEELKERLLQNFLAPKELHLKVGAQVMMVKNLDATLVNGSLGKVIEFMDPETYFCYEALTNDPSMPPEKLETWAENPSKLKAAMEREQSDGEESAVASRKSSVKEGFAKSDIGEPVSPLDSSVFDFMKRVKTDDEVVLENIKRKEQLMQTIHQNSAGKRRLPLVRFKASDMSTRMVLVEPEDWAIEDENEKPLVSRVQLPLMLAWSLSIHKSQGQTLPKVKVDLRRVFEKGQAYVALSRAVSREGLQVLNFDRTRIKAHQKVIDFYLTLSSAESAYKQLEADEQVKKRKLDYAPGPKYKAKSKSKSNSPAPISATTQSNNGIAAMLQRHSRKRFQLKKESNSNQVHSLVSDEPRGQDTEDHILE
ASSAY_METHOD_TEXT: EMSA; 7.5 mM Mg2+; 25 mM HEPES pH 8.0, 5% glycerol, 50 mM NaOAc, 150 μM NaCl (so in the source), 7.5 mM MgCl2, 0.01% Tween-20; 0.2 nM DNA; 30 °C 30 min; 4 mM ATP when present (not stated per row)
PROTOCOL_CONDITIONS: protein: recombinant; tags: SUMO tag in expression construct (pSUMO-Pif1); label: 32P (5' end, T4 PNK)
MEASURE_NAME: Kd (nM)
Dear colleague, please return just the value in nM, with no unit written.

Incoming: Give reported Kd value for TGTGGTGTGTGTGGG (ssDNA) [Tel15]
Outgoing: 112
